viability, T/C: recorded values
- System: 299254-011-R-J1-PDC complex spheroid viability
- ASSAY NOTES: Anticancer human tumor 299254-011-R-J1-PDC patient-derived melanoma cell line growth inhibition [POLQ]
- CONDITION DESCRIPTION: second compound 3.16 µM; first compound 1 µM; hits give low values
Express your answer in %, writing the number without its unit.

Record COc1cccc2c1C(=O)c1c(O)c3c(c(O)c1C2=O)CC(O)(C(=O)CO)CC3OC1CC(N)C(O)C(C)O1 (centres undefined) + COC1C(OC(N)=O)C(O)C(Oc2ccc3c(O)c(NC(=O)c4ccc(O)c(CC=C(C)C)c4)c(=O)oc3c2C)OC1(C)C ; system 299254-011-R-J1-PDC complex spheroid viability; viability, T/C = 45.6

----------
viability, T/C: recorded values
- Test system: 299254-011-R-J1-PDC complex spheroid viability
- ASSAY NOTES: Anticancer human tumor 299254-011-R-J1-PDC cell line growth inhibition [POLQ];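 note: spheroids exposed to drugs for one week before measurement; percent viability relative to DMSO vehicle control taken as 100%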
- CONDITION DESCRIPTION: second compound 3.16 µM; first compound 1 µM; hits give low values
Express your answer in %, writing the number without its unit.

compound="CCCS(=O)(=O)Nc1ccc(F)c(C(=O)c2c[nH]c3ncc(-c4ccc(Cl)cc4)cc23)c1F + Cc1cccc(N(C)C(=O)C2C(O)CCN2c2nc(C)cc(C(F)(F)F)c2C#N)c1" assay_result=108
compound="COc1ccc([C@@H](O)c2cc(-c3ncnc4cc(N5CCOCC5)ccc34)c(F)cc2Cl)nn1 + Cc1cccc(N(C)C(=O)C2C(O)CCN2c2nc(C)cc(C(F)(F)F)c2C#N)c1" assay_result=90.2
compound="CCc1cc2c(N3CCc4c(cc(Cn5ccnc5)cc4-c4cn(C)nc4C(F)(F)F)C3=O)ccnc2c(OC)n1 + COC1C(OC(N)=O)C(O)C(Oc2ccc3c(O)c(NC(=O)c4ccc(O)c(CC=C(C)C)c4)c(=O)oc3c2C)OC1(C)C" assay_result=114
compound="COc1cc2cc(C(=O)CCC(=O)O)sc2cc1OC + COC1C(OC(N)=O)C(O)C(Oc2ccc3c(O)c(NC(=O)c4ccc(O)c(CC=C(C)C)c4)c(=O)oc3c2C)OC1(C)C" assay_result=110

Record CC1COCCN1c1cc(C2(S(C)(=N)=O)CC2)nc(-c2ccnc3[nH]ccc23)n1 (stereo not drawn) + Nc1ccc(C#CCN(C(=O)Cc2ncc(C(F)(F)F)cc2C(F)(F)F)c2ccc(F)cc2)nn1 ; system 299254-011-R-J1-PDC complex spheroid viability; viability, T/C = 82.1

Record C=CCn1c(=O)c2cnc(Nc3ccc(N4CCN(C)CC4)cc3)nc2n1-c1cccc(C(C)(C)O)n1 + COC1C(OC(N)=O)C(O)C(Oc2ccc3c(O)c(NC(=O)c4ccc(O)c(CC=C(C)C)c4)c(=O)oc3c2C)OC1(C)C ; system 299254-011-R-J1-PDC complex spheroid viability; viability, T/C = 69.6

Record C#Cc1c(F)ccc2cc(O)cc(-c3ncc4c(N5CC6CCC(C5)N6)nc(OCC56CCCN5CC(F)C6)nc4c3F)c12 (stereo not drawn) + Nc1ccc(C#CCN(C(=O)Cc2ncc(C(F)(F)F)cc2C(F)(F)F)c2ccc(F)cc2)nn1 ; system 299254-011-R-J1-PDC complex spheroid viability; viability, T/C = 128

Record COc1ccc([C@@H](O)c2cc(-c3ncnc4cc(N5CCOCC5)ccc34)c(F)cc2Cl)nn1 + COC1C(OC(N)=O)C(O)C(Oc2ccc3c(O)c(NC(=O)c4ccc(O)c(CC=C(C)C)c4)c(=O)oc3c2C)OC1(C)C ; system 299254-011-R-J1-PDC complex spheroid viability; viability, T/C = 103
